Reference for the values: PubChem BioAssay AID248

- Tested on: L1210 leukemia ip in BDF1 mice, survival T/C
- MEASUREMENT_PROTOCOL: NCI In Vivo Anticancer Drug Screen. Data for tumor model L1210 Leukemia (intraperitoneal) in B6D2F1 (BDF1) mice
- CONDITION_INFO: endpoint: mean survival time; dose: 200.0 mg/kg/injection; schedule: Q01DX009 (ip); vehicle: Klucel (hydroxypropylcellulose) (HPC); higher = longer survival
- Procedure: The antitumor activity of compounds was measured in mice bearing transplantable tumors. Survival or tumor size were measured and the results are expressed as the measurement made in the treated group (T) divided by the measurement made in the vehicle treated control group (C). The tumor model used in this assay is L1210 Leukemia (intraperitoneal) in B6D2F1 (BDF1) mice
Inconclusive results and toxic doses are left out.
ASSAY_METRIC: T/C

Some solved entries appear below for comparison.
- MOLECULE: "C/C=C(/C(=O)NC(N)=O)C(C)C"
  RESULT: "103 % of control"
- MOLECULE: "C[Si](C)(C)N1N=NC2C(=O)N(c3ccccc3)C(=O)C21 (stereo unspecified)"
  RESULT: "110 % of control"
- MOLECULE: "N#CCN(CC#N)CCN(CC#N)CC#N"
  RESULT: "92 % of control"

Okay, now this molecule:
Ask: State the recorded T/C for this entry: "COc1cccc(CNc2ccc(SC)cc2)c1OC"
Reply: 105 % of control

###

Reported T/C values are given for each entry in this list.
- Tested on: L1210 leukemia ip in BDF1 mice, survival T/C
- MEASUREMENT_PROTOCOL: NCI In Vivo Anticancer Drug Screen. Data for tumor model L1210 Leukemia (intraperitoneal) in B6D2F1 (BDF1) mice
- CONDITION_INFO: endpoint: mean survival time; dose: 200.0 mg/kg/injection; schedule: Q01DX001 (ip); vehicle: carboxymethylcellulose (CMC); higher = longer survival
Inconclusive results and toxic doses are left out.

- COMPOUND: "CN(C)C(=O)CCCc1ccc(N(CCCl)CCCl)cc1"
  T/C: "118 % of control"
- COMPOUND: "O=C1CC2(CC3(Cl)C(Cl)=C(Cl)C2(Cl)C3(Cl)Cl)C(=O)O1 (stereo not given)"
  T/C: "102 % of control"
- COMPOUND: "CC1(C(N)=O)CCC(C(=O)O)C1(C)C (stereo not given)"
  T/C: "103 % of control"
- COMPOUND: "O=[N+]([O-])c1ccc(N2CCCCC2)nc1"
  T/C: "115 % of control"
- COMPOUND: "O=[N+]([O-])c1ccccc1/C=N/Nc1nnc(N/N=C/c2ccccc2[N+](=O)[O-])c2ccccc12"
  T/C: "98 % of control"
- COMPOUND: "CC(=O)c1ccc(S(=O)(=O)NCCCc2c(C)nc(NS(=O)(=O)c3ccc(C(C)=O)cc3)[nH]c2=O)cc1"
  T/C: "96 % of control"
- COMPOUND: "Nc1c(Oc2cccc(C[N+]3(CCOS(=O)(=O)O)CC3)c2)cc(O)c2c1C(=O)c1ccccc1C2=O"
  T/C: "93 % of control"
- COMPOUND: "Fc1cc(N(CCCl)CCCl)ccc1CN1CCCN(Cc2ccc(N(CCCl)CCCl)cc2F)C1c1ccc(N(CCCl)CCCl)cc1Cl"
  T/C: "100 % of control"
- COMPOUND: "CCCCCCCCCCCCCCCCS(=O)(=O)N/N=C/c1ccc(NC(C)=O)cc1"
  T/C: "95 % of control"
- COMPOUND: "C1CCC(C2CCCC(C3CCCCC3)C2)CC1 (stereo not given)"
  T/C: "96 % of control"

Ask: What is its T/C for L1210 leukemia ip in BDF1 mice, survival T/C? Entry: "On1cnc(=S)c2[nH]cnc21"
Reply: 98 % of control

Ask: Again, but for "CCc1ccc(CC(=S)N2CCOCC2)cc1"
Reply: 95 % of control

Ask: Can you handle "Nc1cc2c(cc1[N+](=O)[O-])-c1ccc([N+](=O)[O-])cc1C2=O" next?
Reply: 98 % of control

Ask: And the next one, "N/N=C1\c2ccccc2-c2ccc([N+](=O)[O-])cc21" ?
Reply: 93 % of control

Ask: Can you check "O=C(c1ccc(O)c(C(=O)O)c1)c1ccc(O)c(C(=O)O)c1" next?
Reply: 95 % of control

###

- Test system: L1210 leukemia ip in BDF1 mice, survival T/C
- MEASUREMENT_PROTOCOL: NCI In Vivo Anticancer Drug Screen. Data for tumor model L1210 Leukemia (intraperitoneal) in B6D2F1 (BDF1) mice
- CONDITION_INFO: endpoint: mean survival time; dose: 25.0 mg/kg/injection; schedule: Q01DX009 (ip); vehicle: saline
- Method: The antitumor activity of compounds was measured in mice bearing transplantable tumors. Survival or tumor size were measured and the results are expressed as the measurement made in the treated group (T) divided by the measurement made in the vehicle treated control group (C). The tumor model used in this assay is L1210 Leukemia (intraperitoneal) in B6D2F1 (BDF1) mice
Inconclusive results and toxic doses are left out. Cut-off read from the data, not from the text of the source: active = T/C of 150% or more; inactive = T/C below 125%.
// classify into active, inactive

Answered cases to consult:
- MOLECULE: "COC(=O)C1C(O)C(C)C(=O)C(C)/C=C\\C=C(C)C(=O)Nc2c(C)c(OC(C)=O)c3c(c2O)C(=O)C(C)=C2OCOC(=C23)C(C)=CC(C)(O)C(O)C(C)C1O (stereo not given)"
  CLASS_ASSIGNMENT: "inactive"
- MOLECULE: "CN(C)CCCN=C1Nc2ccccc2C(=NCCCN(C)C)Nc2ccccc21"
  CLASS_ASSIGNMENT: "inactive"

Ask: Name the outcome recorded for "Nc1cccc(C(F)(F)F)c1" in the assay.
Reply: inactive

Ask: Now consider "COc1ccc(N2CSC(=S)N(c3ccc(OC)cc3)C2)cc1" and answer again.
Reply: inactive

Ask: And "C[n+]1ccccc1/C=N/O" ?
Reply: inactive

Ask: Next molecule: CCCCCCCCCCCCCCCCCC[N+](C)(C)C (tested in a mixture with another compound)
Reply: inactive

Ask: Repeat for the following molecule: O=C1NC(O)CCN1C1OC(CO)C(O)C1O (stereo not given)
Reply: inactive

Ask: Lookup "CC(C)(C)C([NH-])=O.CC(C)(C)C([NH-])=O.[Cl][Pt+2][Cl]"
Reply: inactive

Ask: Same read-out for "CNC/C=C/CNC" ?
Reply: inactive

Ask: # iterate: "CCN(CC)CCNCCN"
Reply: inactive

Ask: Moving on to "Cc1ccc(N2CCNCC2)cc1Cl"
Reply: inactive

Ask: And then CCOC1CC2c3ccccc3C1c1cccc[n+]12 (stereo not given) , what is it?
Reply: inactive

Ask: Same question, CC1CC(C)(C)N=C(CCC2CCCCCC2=O)O1 (stereo not given) this time
Reply: inactive

Ask: // repeat for "O=[N+]([O-])c1ccc(/C=N/c2nccs2)o1" and report
Reply: inactive

Ask: Same read-out for Nc1nc(N)c2nc(CNc3ccc(C(=O)NC(CC(=O)O)C(=O)O)cc3)cnc2n1 (stereo not given) ?
Reply: active

###

- Tested on: L1210 leukemia ip in BDF1 mice, survival T/C
- MEASUREMENT_PROTOCOL: NCI In Vivo Anticancer Drug Screen. Data for tumor model L1210 Leukemia (intraperitoneal) in B6D2F1 (BDF1) mice
- CONDITION_INFO: endpoint: mean survival time; dose: 200.0 mg/kg/injection; schedule: Q01DX001 (ip); vehicle: carboxymethylcellulose (CMC); higher = longer survival
Toxic doses and inconclusive results are not listed.
Listed next: entries and their corresponding T/C.

- SMILES_STR: "Nc1ccc2c(c1)C(=O)c1cc(N)c(Br)cc1-2"
  T/C: "95 % of control"
- SMILES_STR: "CC(=O)c1ccc2c(c1)Cc1cc(Br)ccc1-2"
  T/C: "89 % of control"
- SMILES_STR: "Cc1ccc(NC2=C(Cl)C(=O)C(Nc3ccc(C)cc3)=C(Cl)C2=O)cc1"
  T/C: "90 % of control"
- SMILES_STR: "Cc1cc(NC(=O)c2ccccc2)c(C)cc1N"
  T/C: "99 % of control"
- SMILES_STR: "CCCCN(C)N=Nc1ccccc1C(=O)OC"
  T/C: "117 % of control"

Now, please, on to the next compound.
Ask: Quick one: T/C for "CCCCCCC(=O)OCCN1CCN(CC/C=C2\c3ccccc3Sc3ccc(C(F)(F)F)cc32)CC1" ?
Reply: 94 % of control

###

- Tested on: L1210 leukemia ip in BDF1 mice, survival T/C
- MEASUREMENT_PROTOCOL: NCI In Vivo Anticancer Drug Screen. Data for tumor model L1210 Leukemia (intraperitoneal) in B6D2F1 (BDF1) mice
- CONDITION_INFO: endpoint: mean survival time; dose: 400.0 mg/kg/injection; schedule: Q01DX001 (ip); vehicle: other; higher = longer survival
- Protocol: The antitumor activity of compounds was measured in mice bearing transplantable tumors. Survival or tumor size were measured and the results are expressed as the measurement made in the treated group (T) divided by the measurement made in the vehicle treated control group (C). The tumor model used in this assay is L1210 Leukemia (intraperitoneal) in B6D2F1 (BDF1) mice
Inconclusive results and toxic doses are left out.
ASSAY_METRIC: T/C

Some compounds with recorded T/C:
- COMPOUND: "O=C(O)c1ccccc1C(=O)NCCCc1ccccc1"
  T/C: "96 % of control"
- COMPOUND: "CCCCCCC(=O)NC1=C(N2CC2)C(=O)C(NC(=O)CCCCCC)=C(N2CC2)C1=O"
  T/C: "110 % of control"
- COMPOUND: "COC(=O)/C=C(\\C)Nc1ccc(C(=O)C2CCCCC2)cc1"
  T/C: "96 % of control"
- COMPOUND: "COC(=O)c1cc2nc(C(C)C)n(Cc3ccccc3)c2cc1C(=O)OC"
  T/C: "89 % of control"
- COMPOUND: "CC(C)(C)C(=O)CC(c1ccccc1)c1ccccc1"
  T/C: "98 % of control"

Ask: Field request: T/C | item: O=C(NC(Cc1ccccc1)C(=O)Oc1cc(Cl)c(Cl)cc1Cl)OCc1ccccc1 (stereo unspecified)
Reply: 97 % of control
